biological target: human serum protein; assay: adsorption of TM2 variant to human serum protein-immobilized magnetic beads, western blot quantification
Readout label: Non-specific binding of serum protein (%) (% of wild type TM2)

{"columns": ["Binder", "Result"],
 "data": [
  ["TM2 K26A (protein) MSDVQSSLTGTWYNELNSKMELTANADGTLTGKYLSKVGDVYVPYPLSGRYNLQPPAGQGVALGWAVSWENSKIHSATTWSGQFFSESSPVILTQWLLSSSTARGDVWESTLVGNDSFTKTAPTEQQIAHAQLHCRAPRLK", 68],
  ["TM2 K141E (protein) MSDVQSSLTGTWYNELNSKMELTANKDGTLTGKYLSKVGDVYVPYPLSGRYNLQPPAGQGVALGWAVSWENSKIHSATTWSGQFFSESSPVILTQWLLSSSTARGDVWESTLVGNDSFTKTAPTEQQIAHAQLHCRAPRLE", 58],
  ["TM2 R104EK141E (protein) MSDVQSSLTGTWYNELNSKMELTANKDGTLTGKYLSKVGDVYVPYPLSGRYNLQPPAGQGVALGWAVSWENSKIHSATTWSGQFFSESSPVILTQWLLSSSTAEGDVWESTLVGNDSFTKTAPTEQQIAHAQLHCRAPRLE", 25],
  ["TM2 R104E (protein) MSDVQSSLTGTWYNELNSKMELTANKDGTLTGKYLSKVGDVYVPYPLSGRYNLQPPAGQGVALGWAVSWENSKIHSATTWSGQFFSESSPVILTQWLLSSSTAEGDVWESTLVGNDSFTKTAPTEQQIAHAQLHCRAPRLK", 90],
  ["TM2 K73Q (protein) MSDVQSSLTGTWYNELNSKMELTANKDGTLTGKYLSKVGDVYVPYPLSGRYNLQPPAGQGVALGWAVSWENSQIHSATTWSGQFFSESSPVILTQWLLSSSTARGDVWESTLVGNDSFTKTAPTEQQIAHAQLHCRAPRLK", 55]
]}
